- PROTOCOL_TEXT: inhibitors of intracellular T. cruzi replication, confirmation, NIH3T3 host cells, beta-gal luminescence (AID 2044);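 also: intracellular parasites grown in NIH/3T3 mouse fibroblasts as host cells; luminescent beta-galactosidase reporter signal from transgenic T. cruzi replicating inside host cells; inhibitors lower the luminescence signal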
- Type: functional, cell-based
Active and inactive are the calls of the source.
Item-by-item account of EC50

Q) Please give the measured EC50 for this compound: Cc1cc(OCCCn2ccnc2)ccc1C(C)C
A) 1.99 µM (active)

Q) Give its EC50 value. Item: CNCCCOc1cccc(Oc2ccccc2)c1
A) 1.29 µM (active)

Q) Would you mind telling me what EC50 value was observed for N=C1S/C(=C\c2ccco2)C(=O)N1c1nccs1 ?
A) 2.11 µM (active)

Q) What value of EC50 has been recorded for this entry: Cc1cc(C)cc(Nc2ccc([N+](=O)[O-])nc2[N+](=O)[O-])c1
A) 1.63 µM (active)

Q) // query EC50 value for entry COc1ccc(C2CC(=O)c3c(C)nc(N4CCN(Cc5ccccc5)CC4)nc3C2)cc1OC (stereo unspecified)
A) 1.85 µM (active)

Q) What does the data say about its EC50? Entry: Cc1ccc(-n2cccc2C(=S)N=P(N(C)C)(N(C)C)N(C)C)cc1
A) 0.148 µM (active)

----------
- TARGET_UNDER_TEST: UniProt P11712
- Sequence (P11712 whole entry): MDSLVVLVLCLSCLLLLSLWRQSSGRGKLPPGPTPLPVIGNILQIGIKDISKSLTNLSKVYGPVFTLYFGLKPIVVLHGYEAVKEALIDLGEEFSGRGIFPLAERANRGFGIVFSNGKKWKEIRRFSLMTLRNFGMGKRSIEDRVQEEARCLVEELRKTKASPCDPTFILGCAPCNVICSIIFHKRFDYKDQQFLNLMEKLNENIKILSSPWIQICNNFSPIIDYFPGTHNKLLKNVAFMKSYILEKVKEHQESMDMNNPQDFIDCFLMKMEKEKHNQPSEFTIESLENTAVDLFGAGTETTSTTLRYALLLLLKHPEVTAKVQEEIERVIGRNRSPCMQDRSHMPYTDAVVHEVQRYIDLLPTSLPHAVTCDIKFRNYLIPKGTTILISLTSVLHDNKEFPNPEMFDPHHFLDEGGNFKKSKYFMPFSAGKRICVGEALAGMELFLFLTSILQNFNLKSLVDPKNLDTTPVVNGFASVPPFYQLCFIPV
ENDPOINT_LABEL: AC50

Look over these answered cases.
| COMPOUND | AC50 |
| --- | --- |
| CCOC(=O)c1ccccc1N/C=C1\CCCCC1=O | 39.8 µM (inconclusive) |
| COc1ccc(/C=N/N(C(C)=O)c2nc(-c3ccc(C)cc3)cs2)cc1 | 3.16 µM (inconclusive) |

Q) So what AC50 did Cn1c(/C(C#N)=C(\O)c2ccc(S(=O)(=O)N3CCCCC3)cc2)nc2ccccc21 get with UniProt P11712?
A) 0.316 µM (inconclusive)

Q) Requested read-out AC50, target or system UniProt P11712, entry O=C(NCCCN1CCN(c2cccc(Cl)c2)CC1)C1CCC(=O)N1Cc1ccccc1Cl (centres undefined)
A) 15.8 µM (inconclusive)

Q) Recorded AC50 for O=C1C2CCCN2C(c2ccccc2F)N1c1ccc(Cl)cc1 (centres undefined) with UniProt P11712, please?
A) 39.8 µM (inconclusive)

Q) GET /values?readout=AC50&system=UniProt P11712&item= CO[C@@H]1/C=C\O[C@]2(C)Oc3c(C)c(O)c4c(O)c(c(CN5CCN(C)CC5)c(O)c4c3C2=O)NC(=O)/C(C)=C\C=C[C@@H](C)[C@@H](O)[C@H](C)[C@@H](O)[C@H](C)[C@H](OC(C)=O)[C@@H]1C
A) 6.31 µM (inconclusive)

Q) For UniProt P11712, provide AC50 of CCn1c(SCC(=O)c2ccc3ccccc3c2)nnc1-c1cccs1 please.
A) 17.8 µM (inconclusive)

Q) Provide the documented AC50 with UniProt P11712 as the system for O=C(Nc1cccc(OC(=O)c2cccnc2)c1)c1cccnc1
A) 28.2 µM (inconclusive)

Q) Write down the reported AC50 of Cc1ccc(C2C(C(=O)c3ccc(Cl)cc3)=C(O)C(=O)N2CC2CCCO2)o1 (centres undefined) , test system: UniProt P11712.
A) 22.4 µM (inconclusive)

Q) Look up AC50 with UniProt P11712 for this compound: C#CCCCC(=S)Nc1ccccc1
A) 39.8 µM (inconclusive)

Q) What reported AC50 corresponds to O=C(COc1ccccc1)Nc1ccc(-c2nnc(-c3ccco3)o2)cc1 on UniProt P11712?
A) 1.78 µM (inconclusive)

Q) Param readout= AC50; system= UniProt P11712; entry= O=C(CCc1ccccc1)Nc1nnc[nH]1 ; returns value.
A) 39.8 µM (inconclusive)

Q) What value of AC50 on UniProt P11712 does NCCCCCCNS(=O)(=O)c1cccc2ccccc12 have?
A) 0.2 µM (inconclusive)

Q) Query the reported AC50 for UniProt P11712; item: Cc1ccc[n+](CC(=O)c2cc3ccccc3oc2=O)c1
A) 1.78 µM (inconclusive)

Q) Hello, I am looking for reported AC50 with UniProt P11712 for CC(C)(C)c1ccc(OC(=O)Cn2c(C(F)(F)F)nc3ccccc32)cc1 . Could you help?
A) 0.891 µM (inconclusive)

Q) API: value(readout= AC50, system= UniProt P11712, query= CSc1nncc(-c2ccc(F)c(F)c2)n1 )
A) 28.2 µM (inconclusive)

Q) Report AC50 for COc1cc(OC)cc(C(=O)NC(=S)Nc2ccc(Cl)c(C(=O)O)c2)c1 tested on UniProt P11712.
A) 12.6 µM (inconclusive)

Q) Lab request: please report AC50 under test system UniProt P11712 for COc1ccc(C(=O)N/C(=C/c2cccs2)C(=O)NCCCn2ccnc2)cc1OC
A) 5.01 µM (inconclusive)

Q) Please tell me: AC50 of CN(C)c1ccc(-c2cc(-n3ccnc3)ncn2)cc1 , system UniProt P11712?
A) 0.794 µM (inconclusive)
